These measurements were taken from patent US10562912B2.

tested.on: STAT3 (Homo sapiens)
Construct: plasmid pSTAT3-TA-luc), which contains a stably operating STAT3 promoter; endogenous in cells
test.method.notes: STAT3 reporter gene assay (luciferase), LNCaP stable cell line (pSTAT3-TA-luc), IL-6 stimulation
Assay type: cell-based
endpoint: IC50 (µM)

(1) CC(C)c1ccc(C(C)(C)c2cc(Cl)cc(NC(=O)c3cc4cc(NS(C)(=O)=O)c(Cl)cc4s3)c2)s1 [Example 180]
(2) CNc1ccc(-c2cccc(NC(=O)c3cc4ccc(NS(C)(=O)=O)cc4[nH]3)c2)c(C(F)(F)F)c1 [Example 386]
(3) CC(C)(c1cc(Br)cc(NC(=O)c2cc3cc(NS(C)(=O)=O)ccc3s2)c1)c1cccc(OC(F)F)c1 [Example 46]
Problem: From the records above, write out the order of decreasing IC50. Give the order by naming the labels one after another as requested.
Solution: 2, 3, 1

====

Tested on: HEL92.1.7
test.method.notes: Cell growth inhibition assay, blood cancer cell line HEL92.1.7
Type: cell-based
assay.context: Homo sapiens, HEL 92.1.7, HEL92.1.7 blood cancer cell line
endpoint: IC50 (µM)

{"compound": "CC(C)Oc1cc(OC(F)(F)F)cc(C(C)(C)c2cc(Br)cc(NC(=O)c3cc4cc(NS(C)(=O)=O)ccc4s3)c2)c1 [Example 49]", "IC50 / µM": 0.023}
{"compound": "CC#CCOc1cc(OC(F)(F)F)cc(C(C)(C)c2cc(Cl)cc(NC(=O)c3cc4cc(NS(C)(=O)=O)ccc4s3)c2)c1 [Example 75]", "IC50 / µM": 0.02}

(P) COc1cc(OC(F)(F)F)cc(C(C)(C)c2cc(Cl)cc(NC(=O)c3cc4cc(NS(C)(=O)=O)ccc4s3)n2)c1 [Example 150]
(Q) CCCOc1cc(OC(F)(F)F)cc(C(C)(C)c2cc(Cl)cc(NC(=O)c3cc4cc(NS(C)(=O)=O)ccc4s3)c2)c1 [Example 73]
Problem: Could you determine which record has the numerically smaller IC50? Candidates: P and Q Lab note: record the label of whichever item you select.
Solution: P

====

tested.on: STAT3 (Homo sapiens)
Construct: plasmid pSTAT3-TA-luc), which contains a stably operating STAT3 promoter; endogenous in cells
test.method.notes: STAT3 reporter gene assay (luciferase), LNCaP stable cell line (pSTAT3-TA-luc), IL-6 stimulation
Type: cell-based
endpoint: IC50 (µM)

{"chem.smiles": "COc1cc(OC(F)(F)F)cc(C(C)(C)c2cc(F)cc(NC(=O)c3cc4cc(NS(C)(=O)=O)ccc4s3)c2)c1", "measurement.unit": "µM", "numeric.result": 0.034}

(I) COc1cc(NC(=O)c2cc3ccc(NS(C)(=O)=O)cc3[nH]2)cc(S(=O)(=O)c2cccc(OC(F)(F)F)c2)c1
(II) CC(C)(c1cccc(NC(=O)c2cc3cc(NS(C)(=O)=O)ccc3s2)c1)c1ccccc1F
Problem: Of the two listed items, I and II , which carries the larger IC50 figure? Mark your answer with the label of the selected entry.
Solution: I

====

System: HEL92.1.7
test.method.notes: Cell growth inhibition assay, blood cancer cell line HEL92.1.7
Assay type: cell-based
assay.context: Homo sapiens, HEL 92.1.7, HEL92.1.7 blood cancer cell line
endpoint: IC50 (µM)

(A) CS(=O)(=O)Nc1ccc2sc(C(=O)Nc3cc(Br)cc(S(=O)(=O)N4CCc5ccc(F)cc5C4)c3)cc2c1 [Example 418]
(B) CSc1ccc(C(C)(C)c2cc(Cl)cc(NC(=O)c3cc4cc(NS(C)(=O)=O)ccc4s3)c2)cc1 [Example 157]
Problem: Which item exceeds the other in IC50, A or B ? Kindly state the label of the option you pick.
Solution: A

====

tested.on: STAT3 (Homo sapiens, UniProt P40763)
Construct: plasmid pSTAT3-TA-luc), which contains a stably operating STAT3 promoter; endogenous in cells
Sequence (P40763 whole entry): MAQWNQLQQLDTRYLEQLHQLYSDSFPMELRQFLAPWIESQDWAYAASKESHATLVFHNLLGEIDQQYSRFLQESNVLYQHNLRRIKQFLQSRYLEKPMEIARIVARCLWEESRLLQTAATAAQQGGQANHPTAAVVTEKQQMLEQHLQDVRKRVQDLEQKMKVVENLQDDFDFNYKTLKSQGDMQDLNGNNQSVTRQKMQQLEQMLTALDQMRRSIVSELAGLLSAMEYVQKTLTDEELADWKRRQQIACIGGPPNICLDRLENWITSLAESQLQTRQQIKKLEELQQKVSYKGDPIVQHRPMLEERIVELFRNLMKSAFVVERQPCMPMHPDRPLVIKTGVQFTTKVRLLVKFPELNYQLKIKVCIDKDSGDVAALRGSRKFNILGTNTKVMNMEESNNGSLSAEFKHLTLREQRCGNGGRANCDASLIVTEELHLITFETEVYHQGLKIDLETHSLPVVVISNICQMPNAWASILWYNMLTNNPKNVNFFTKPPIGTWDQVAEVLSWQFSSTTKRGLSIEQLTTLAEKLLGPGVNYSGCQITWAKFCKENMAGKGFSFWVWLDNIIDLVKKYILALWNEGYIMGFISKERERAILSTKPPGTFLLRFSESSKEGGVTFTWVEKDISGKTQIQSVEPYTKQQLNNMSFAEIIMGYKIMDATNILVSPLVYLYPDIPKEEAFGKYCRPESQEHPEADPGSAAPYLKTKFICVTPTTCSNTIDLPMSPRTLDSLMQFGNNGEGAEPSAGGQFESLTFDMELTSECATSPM
test.method.notes: STAT3 reporter gene assay (luciferase), LNCaP stable cell line (pSTAT3-TA-luc), IL-6 stimulation
Format: cell-based
endpoint: IC50 (µM)

Some molecules with recorded IC50:
{"chem.smiles": "O=C(Nc1cc(Br)cc(-c2ccc(F)cc2F)c1)c1cc2cc(OC(F)(F)F)ccc2[nH]1", "measurement.unit": "µM", "IC50": 5.6}
{"chem.smiles": "Cn1cccc1C(C)(C)c1cc(Cl)cc(NC(=O)c2cc3cc(NS(C)(=O)=O)ccc3s2)c1", "measurement.unit": "µM", "IC50": 0.039}

(1) CC(C)(c1cc(Cl)cc(NC(=O)c2cc3cc(NS(C)(=O)=O)ccc3s2)c1)c1cc(OCCN2CCOCC2)cc(OC(F)(F)F)c1
(2) CC(C)Oc1cc(OC(F)(F)F)cc(C(C)(C)c2cc(Cl)cc(NC(=O)c3cc4cc(NS(=O)(=O)C(C)C)ccc4s3)c2)c1
(3) CS(=O)(=O)Nc1ccc2sc(C(=O)Nc3cc(Cl)cc(Oc4cc(Cl)cc(Cl)c4)c3)cc2c1
(4) CC(C)(c1cccc(NC(=O)c2cc3ccc(N(CC(N)=O)S(C)(=O)=O)cc3[nH]2)c1)c1cc(O)cc(OC(F)(F)F)c1
(5) CS(=O)(=O)Nc1ccc2cc(C(=O)Nc3cc(OCC#N)cc(-c4ccc(F)cc4F)c3)[nH]c2c1
Problem: Arrange items by their IC50 values in increasing order. A ranking is expressed here by listing the labels in the requested order.
Solution: 2, 1, 3, 5, 4
(2: 0.006 µM, 1: 0.043 µM, 3: 0.17 µM, 5: 2.7 µM, 4: 5.2 µM)

====

System: HEL92.1.7
test.method.notes: Cell growth inhibition assay, blood cancer cell line HEL92.1.7
Type: cell-based
assay.context: Homo sapiens, HEL 92.1.7, HEL92.1.7 blood cancer cell line
endpoint: IC50 (µM)

(I) O=C(Nc1cc(Cl)cc(-c2ccc(F)cc2F)c1)c1cc2cc(NS(=O)(=O)C3CCOC3)ccc2s1 (stereo not drawn)
(II) CC(C)Oc1cc(OC(F)(F)F)cc(C(C)(C)c2cc(F)cc(NC(=O)c3cc4cc(NS(C)(=O)=O)ccc4s3)c2)c1
Problem: Between the entries labelled I and II , which has a larger IC50 value on record? Your answer should be the label of the entry you select.
Solution: I

(a) CC(C)Oc1cc(OC(F)(F)F)cc(C(C)(C)c2cc(Cl)cc(NC(=O)c3cc4cc(NS(C)(=O)=O)cnc4s3)c2)c1
(b) CC(C)Oc1cc(OC(F)(F)F)cc(C2(c3cc(Cl)cc(NC(=O)c4cc5cc(N(C)S(C)(=O)=O)c(F)cc5s4)c3)CC2)c1
Problem: // pick min by IC50: a , b Indicate which entry you chose by stating its label.
Solution: b

====

Tested on: DU-145
test.method.notes: Cell growth inhibition assay, prostate cancer cell line DU-145
Assay type: cell-based
assay.context: Homo sapiens, DU-145 prostate cancer cell line
endpoint: IC50 (µM)

Example compounds with recorded IC50:
{"compound": "CC(C)(c1cc(Br)cc(NC(=O)c2cc3cc(NS(C)(=O)=O)ccc3s2)c1)c1cc(CN2CCN(C3COC3)CC2)cc(OC(F)(F)C(F)F)c1", "IC50 / µM": 0.14}
{"compound": "CC(C)Oc1cc(OC(F)(F)F)cc(C(C)(C)c2cc(Cl)cc(NC(=O)c3cc4cc(NS(=O)(=O)CCN(C)C)ccc4s3)c2)c1", "IC50 / µM": 0.08}
{"compound": "CN(c1cc(Cl)cc(NC(=O)c2cc3cc(NS(C)(=O)=O)ccc3s2)c1)c1ccc(F)cc1F", "IC50 / µM": 0.089}
{"compound": "CC(C)Oc1cc(OC(F)(F)F)cc(C(C)(C)c2cc(Cl)cc(NC(=O)c3cc4cc(NS(C)(=O)=O)c(Cl)cc4s3)c2)c1", "IC50 / µM": 0.001}
{"compound": "COc1cc(OC(F)(F)F)cc(C(C)(C)c2cc(Br)cc(NC(=O)c3cc4cnc(NS(C)(=O)=O)cc4[nH]3)c2)c1", "IC50 / µM": 0.31}

(P) CC(C)Oc1cc(OC(F)(F)F)cc(C(C)(C)c2cc(I)cc(NC(=O)c3sc4ccc(NS(C)(=O)=O)cc4c3I)c2)c1
(Q) CC(C)(c1cc(Br)cc(NC(=O)c2cc3cc(NS(C)(=O)=O)ncc3s2)c1)c1cc(OC(F)(F)F)cc(OC(F)(F)C(F)F)c1
Problem: Parameter metric = IC50. Return the lower-valued option from P and Q . Let me know the label of the one you choose.
Solution: Q
(Q: 0.048 µM, P: 0.3 µM)

====

Test system: LNCaP
test.method.notes: Cell growth inhibition assay, prostate cancer cell line LNCaP (medium with 10 ng/mL IL-6)
Format: cell-based
assay.context: Homo sapiens, medium supplemented with 10 ng/mL of IL-6, 10,000 cells/well
endpoint: IC50 (µM)

{"compound": "CSc1ccc(C(C)(C)c2cc(Cl)cc(NC(=O)c3cc4cc(NS(C)(=O)=O)ccc4s3)c2)cc1 [Example 157]", "IC50 [µM]": 0.079}

(P) CS(=O)(=O)Nc1cc2cc(C(=O)Nc3cc(Cl)cc(Oc4ccc(Cl)cc4)c3)sc2cc1Br [Example 453]
(Q) CS(=O)(=O)Nc1ccc2sc(C(=O)Nc3cc(Cl)cc(Oc4cc(F)cc(Cl)c4)c3)cc2c1 [Example 469]
Problem: Compare reported IC50 values for P and Q . Which is lower? Use the label to indicate which entry you chose.
Solution: Q
